- Assay Notes: Pharmacokinetic test in blood by a single oral administration to guinea pigs
- Format: in vivo
- Measurement Setup: male, Hartley, guinea pig, po, 100 mg/kg orally, plasma, read-out: Tmax
Readout Kind: Tmax (h)

As a guide, the following entries are already answered.
Compound	Reported Result
Cl.O=C(NCC(COCc1cc(C(F)(F)F)cc(C(F)(F)F)c1)c1ccccc1)c1ccc(CN2CCCC2)cc1 (stereo not shown)	4
O=C(Cc1cc[n+]([O-])cc1)NCC(COCc1cc(C(F)(F)F)cc(C(F)(F)F)c1)c1ccccc1 (stereo not shown)	8

[a] Cl.O=C(NCC(COCc1cc(C(F)(F)F)cc(C(F)(F)F)c1)c1ccccc1)C1CCNCC1 (stereo not shown)
[b] O=C(NCC(COCc1cc(C(F)(F)F)cc(C(F)(F)F)c1)c1ccc(F)cc1)c1ccc[n+]([O-])c1 (stereo not shown)
Hey, between a and b which has a smaller measured Tmax? Please respond with the label that marks your chosen entry.
b
(b: 4 h, a: 8 h)
